Numbers sourced from PubChem BioAssay (NCI).

Assay: NCI Yeast Anticancer Drug Screen. Data for the mec2-1 strain (AID 157)
Conditions: S. cerevisiae mec2-1 strain, at 5.0 µM (retest, dose inferred, filed as 0.5)
This is part of a sample that, as a whole, favours compounds with a hit. Of some 79,000 tested, about 15% had one in any assay. Activity calls are given as the source filed them. Rule as the data show it: active = growth inhibition above about 70%; inactive = the rest.
Outcome field: choose from true (1) for active, false (0) for inactive

These recorded examples may help you get a feel for the data.
What did this assay record as the result for Fc1ccc(NC(=S)SCc2ccc(Cl)c(Cl)c2)c(F)c1 ?
false (0)

What did this assay record as the result for O=C(C=P(c1ccccc1)(c1ccccc1)c1ccccc1)c1ccccc1-c1ccccc1C(=O)C=P(c1ccccc1)(c1ccccc1)c1ccccc1 ?
true (1)

What did this assay record as the result for N#CC1(C#N)C(C#N)(C#N)C12CCC2 ?
false (0)

What did this assay record as the result for CC(C(=O)c1ccc2cc(Br)c3ccccc3c2c1)N(C)C (configuration not stated) ?
false (0)

Others:
What did this assay record as the result for COc1ccc(Cc2c(-c3ccc(C)cc3)n[nH]c(=O)c2C2C(=O)N(c3ccccc3)N=C2c2ccccc2)cc1 (configuration not stated) ?
true (1)

What did this assay record as the result for COC(=O)C12OCC34C(CC5C(C)C6=CC(=O)OC6=CC5(C)C3C(O)C1O)OC(=O)C(OC(C)=O)C24 (configuration not stated) ?
false (0)

----------
Measured growth inhibition by item
Assay: NCI Yeast Anticancer Drug Screen. Data for the sgs1 mgt1 strain (AID 161);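 also: 0% = growth of cultures given vehicle only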
Settings: S. cerevisiae sgs1 mgt1 strain, at 50.0 µM (retest, dose inferred, filed as 5.0), hits give high values
Method: Growth inhibition of yeast strains with defined genetic alterations is measured as a screen for potential anti-cancer activity. Selected strains with alterations in DNA damage repair or cell cycle control were exposed to compounds and growth inhibition was measured relative to vehicle treated controls. The strain used in this assay is sgs1 mgt1
This is part of a sample that, as a whole, favours compounds with a hit. Of some 79,000 tested, about 15% had one in any assay.
Kindly answer with a numeric value in %, unit omitted.

Return reported growth inhibition; argument: COc1cccc(N2CCN(CC(O)COc3cc4c(c5c3CCCC5)CCCC4)CC2)c1 (stereo unspecified)
95

Return reported growth inhibition; argument: C=C1C(=O)OC(CCCCCCCCCCCCC)C1C(=O)O (stereo unspecified)
84

Return reported growth inhibition; argument: CCOc1ccc2nc(NC(=O)c3c/c(=N\NC(=O)C[N+](C)(C)C)c4ccc(O)cc4o3)sc2c1
65

Others:
Return reported growth inhibition; argument: CC(=O)Nc1ccc2c(c1)Cc1cccc(F)c1-2
3

Return reported growth inhibition; argument: N#Cc1cc([N+](=O)[O-])ccc1NC(=O)/C(=N/N)C(C(=O)c1ccc(Cl)c(Cl)c1)C1OC(=O)c2ccccc21 (stereo unspecified)
18

Return reported growth inhibition; argument: CCSSC12CCCN1C(=O)C(C)N(C)C2=O (stereo unspecified)
49

----------
Experiment: NCI Yeast Anticancer Drug Screen. Data for the cln2 rad14 strain (AID 165);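 also: 0% = growth equal to vehicle treated cultures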
Conditions: S. cerevisiae cln2 rad14 strain, at 50.0 µM (retest, dose inferred, filed as 5.0)
Description: Growth inhibition of yeast strains with defined genetic alterations is measured as a screen for potential anti-cancer activity. Selected strains with alterations in DNA damage repair or cell cycle control were exposed to compounds and growth inhibition was measured relative to vehicle treated controls. The strain used in this assay is cln2 rad14
The panel holds about 79,000 compounds, 15% with a hit somewhere; the sample as a whole holds those more often. Calls of active or inactive are those of the source. Rule as the data show it: active = growth inhibition above about 70%; inactive = the rest.
Outcome field: choose from active, inactive

These recorded examples may help you get a feel for the data.
What did this assay record as the result for COC(=O)C1=C(C)NC(C)=C(C(=O)OC)C1c1ccc(NCc2ccccc2)c([N+](=O)[O-])c1 ?
active

What did this assay record as the result for Cc1c(Cl)ccc(O)c1[N+](=O)[O-] ?
active

What did this assay record as the result for CCCCCCCCCCCCCCC(=O)OCC[N+](C)(C)C ?
active

What did this assay record as the result for Cc1n(CC(C)C)c2c([n+]1CC(=O)c1ccc([N+](=O)[O-])cc1)C(=O)c1ccccc1C2=O ?
active

What did this assay record as the result for CCN1C2=NCCN2S(=O)(=O)c2ccccc21 ?
inactive

What did this assay record as the result for CCCCCCCCCCCCNCCNCCN ?
active

What did this assay record as the result for CC(=O)Oc1cccc2c(OC(C)=O)cccc12 ?
inactive

What did this assay record as the result for O=C(O)CCC(=O)NNc1ccccc1 ?
active

What did this assay record as the result for NC1=NC(c2ccccc2)CC(c2cc(Cl)cc(Br)c2O)=N1 (centres undefined) ?
inactive

What did this assay record as the result for C/C(=N/NC(=S)NCc1ccccc1)c1ncccn1 ?
active

Others:
What did this assay record as the result for COc1ccc(OP2(Oc3ccc(OC)cc3)=NP(Oc3ccc(OC)cc3)(Oc3ccc(OC)cc3)=NP(Oc3ccc(OC)cc3)(Oc3ccc(OC)cc3)=NP(Oc3ccc(OC)cc3)(Oc3ccc(OC)cc3)=N2)cc1 ?
inactive

What did this assay record as the result for CC(=O)Oc1c([N+](=O)[O-])cc(-c2ccccc2)cc1[N+](=O)[O-] ?
active

What did this assay record as the result for CCCCCN=Cc1c(O)c(O)c(C(C)C)c2cc(C)c(-c3c(C)cc4c(C(C)C)c(O)c(O)c(C=NCCCCC)c4c3O)c(O)c12 ?
inactive

What did this assay record as the result for C/C(CC(O)(C(F)(F)F)C(F)(F)F)=N/Nc1ccc([N+](=O)[O-])cc1[N+](=O)[O-] ?
active

What did this assay record as the result for O=C1C(Cl)=C(Nc2cc(Cl)ccc2Cl)C(=O)c2ccccc21 ?
active

What did this assay record as the result for CC1CN(C(=S)NNC(C)c2cc3ccccc3cn2)CC(C)O1 (centres undefined) ?
active

What did this assay record as the result for CCCCN(C(=O)c1ccccc1)C1CCC(=O)c2[nH]c3ccccc3c21 (centres undefined) ?
inactive

What did this assay record as the result for Clc1ccccc1/C=C/c1ccccn1 ?
inactive

What did this assay record as the result for Cn1cnc2[nH]c(Cl)nc(=S)c21 ?
inactive

What did this assay record as the result for O=C(NCCCCCCNC(=O)n1cc(F)c(=O)[nH]c1=O)NC1C(O)OC(CO)C(O)C1O (centres undefined) ?
active

What did this assay record as the result for Cc1ccc(C)c(S(=O)(=O)Nc2c([N+](=O)[O-])cc([N+](=O)[O-])c3ccccc23)c1 ?
inactive

What did this assay record as the result for CCCCCCC(/C=C/c1c(Cl)cccc1Cl)=N\O ?
inactive

What did this assay record as the result for COc1ccccc1NC(=O)/C(=C/n1c(=S)sc2ccccc21)C(C)=O ?
inactive

What did this assay record as the result for COc1cc(O)c2c(c1)C(=O)c1cc3c(c(O)c1C2=O)C(OC1OC(C)C(O)C(O)C1OC)C(OC)C(C)(O)C3=O (centres undefined) ?
active

----------
Assay: NCI Yeast Anticancer Drug Screen. Data for the mec2-1 strain (AID 157)
Conditions: S. cerevisiae mec2-1 strain, at 50.0 µM, hits give high values
Compounds without any hit were thinned out: in the full panel of roughly 79,000, 15% have a hit.
Measured growth inhibition by item
Kindly answer with a numeric value in %, unit omitted.

A selection of reference data follows.
Return reported growth inhibition; argument: CC(=O)c1c2c(cc3c1CC1(C3)Cc3cc4c(c(C(=O)O)c3C1)CCCC4)CCCC2 (centres undefined) (tested in a mixture with another compound)
97

Return reported growth inhibition; argument: C1=C([P+](c2ccccc2)(c2ccccc2)c2ccccc2)CCCC1
92.2

Return reported growth inhibition; argument: O=C(O)C1(Cc2ccc3c(c2)CCC3)Cc2ccccc2C1
91.9

Others:
Return reported growth inhibition; argument: CC(C)(C)C(=O)CC(=O)C(F)(F)C(F)(F)C(F)(F)F.CC(C)(C)C(=O)CC(=O)C(F)(F)C(F)(F)C(F)(F)F.CC(C)(C)C(=O)CC(=O)C(F)(F)C(F)(F)C(F)(F)F.[Er]
91

----------
Assay: NCI Yeast Anticancer Drug Screen. Data for the cln2 rad14 strain (AID 165);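 also: 0% = growth equal to vehicle treated cultures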
Settings: S. cerevisiae cln2 rad14 strain, at 50.0 µM
Compounds without any hit were thinned out: in the full panel of roughly 79,000, 15% have a hit. Active and inactive are the calls of the source. Cut-off read from the data, not from the text of the source: active = growth inhibition above about 70%; inactive = the rest.
Outcome field: choose from active, inactive

These recorded examples may help you get a feel for the data.
What did this assay record as the result for CC(N1CCOCC1)C(O)(c1ccccc1)c1ccccn1 (stereo unspecified) ?
inactive

What did this assay record as the result for COc1ccc(OC)c2c(=S)c3ccccc3[nH]c12 ?
inactive

What did this assay record as the result for O=C1C(Cl)=C(N2C(=O)CCC2=O)C(=O)c2ccccc21 ?
active

What did this assay record as the result for O=Cc1ccc([N+](=O)[O-])o1 ?
active

What did this assay record as the result for Cc1occc1C(=S)Nc1ccc(Cl)c(/C=N/OC(C)C)c1 ?
active

Others:
What did this assay record as the result for CC(C)NC(=O)CN1C(=O)NC(C)(c2ccccc2)C1=O (stereo unspecified) ?
active

What did this assay record as the result for C[n+]1cc2c3ccccc3ccc2c2ccccc21 ?
inactive

What did this assay record as the result for Clc1cc(Cl)c2cc3cccc[n+]3cc2c1Cl ?
inactive

What did this assay record as the result for COc1ccccc1/C=C1\SC(=S)N(/C=C2\C(=O)Oc3ccccc3C2=O)C1=O ?
inactive

What did this assay record as the result for COC(=O)CS(=O)(=O)CCS(=O)(=O)CC(=O)OC ?
inactive

What did this assay record as the result for O=C1CNCCCN2CCN(CCCNCC(=O)Nc3ccc(cc3)S(=O)(=O)c3ccc(cc3)NC(=O)CNCCCN3CCN(CCCNCC(=O)Nc4ccc(cc4)S(=O)(=O)c4ccc(cc4)N1)CC3)CC2 ?
active
